I'd appreciate it if you could supply Kd values for the items below.
- target: T1, human transferrin receptor 1 (hTfR1) (human, UniProt P02786 89-760, limits assumed)
- T1 construct: The selections used the biotinylated ECD domain of hTfR1
- T1 sequence (P02786 89-760 limits assumed): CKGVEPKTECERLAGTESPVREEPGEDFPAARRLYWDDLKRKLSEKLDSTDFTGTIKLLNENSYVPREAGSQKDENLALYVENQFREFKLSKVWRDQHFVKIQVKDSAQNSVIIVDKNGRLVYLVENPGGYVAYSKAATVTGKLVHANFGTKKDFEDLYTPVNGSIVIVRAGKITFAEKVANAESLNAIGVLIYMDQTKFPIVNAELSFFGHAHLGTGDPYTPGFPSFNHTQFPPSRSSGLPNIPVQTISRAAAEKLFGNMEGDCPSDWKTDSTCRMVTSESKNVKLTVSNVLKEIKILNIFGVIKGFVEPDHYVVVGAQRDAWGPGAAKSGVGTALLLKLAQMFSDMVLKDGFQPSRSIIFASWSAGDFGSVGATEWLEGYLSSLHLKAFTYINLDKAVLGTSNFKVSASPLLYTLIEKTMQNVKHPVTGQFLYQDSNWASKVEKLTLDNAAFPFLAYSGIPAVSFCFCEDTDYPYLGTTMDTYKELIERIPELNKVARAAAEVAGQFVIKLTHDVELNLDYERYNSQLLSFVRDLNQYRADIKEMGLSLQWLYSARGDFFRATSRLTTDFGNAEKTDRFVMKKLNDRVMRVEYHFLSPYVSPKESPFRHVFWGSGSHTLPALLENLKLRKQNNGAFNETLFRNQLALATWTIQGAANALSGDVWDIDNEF
- assay_method_text: competition phage ELISA (phage-displayed Fab)

Solved cases (4 shown):
binder: Fab0060 (Fab, V domains shown) VH: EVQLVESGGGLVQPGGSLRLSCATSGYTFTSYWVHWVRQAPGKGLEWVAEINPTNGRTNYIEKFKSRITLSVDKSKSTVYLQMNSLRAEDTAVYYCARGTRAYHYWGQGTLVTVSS VL: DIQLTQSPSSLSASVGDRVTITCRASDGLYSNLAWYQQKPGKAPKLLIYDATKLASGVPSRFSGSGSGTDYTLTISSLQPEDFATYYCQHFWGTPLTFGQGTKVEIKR
measured_value: 0.49 nM
--
binder: Fab0070 (Fab, V domains shown) VH: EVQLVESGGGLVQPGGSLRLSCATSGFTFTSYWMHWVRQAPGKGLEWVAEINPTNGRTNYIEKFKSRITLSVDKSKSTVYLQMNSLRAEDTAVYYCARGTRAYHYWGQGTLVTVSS VL: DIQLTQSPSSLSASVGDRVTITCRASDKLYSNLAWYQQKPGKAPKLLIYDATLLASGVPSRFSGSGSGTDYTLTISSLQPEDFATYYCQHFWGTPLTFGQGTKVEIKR
measured_value: 0.49 nM
--
binder: Fab0066 (Fab, V domains shown) VH: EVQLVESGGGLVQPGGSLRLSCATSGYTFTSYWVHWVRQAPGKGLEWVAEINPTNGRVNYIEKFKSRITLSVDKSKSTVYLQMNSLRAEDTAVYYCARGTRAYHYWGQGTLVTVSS VL: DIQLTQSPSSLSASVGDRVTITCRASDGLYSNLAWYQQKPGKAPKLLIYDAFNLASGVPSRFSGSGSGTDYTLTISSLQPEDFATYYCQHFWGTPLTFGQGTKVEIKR
measured_value: 0.87 nM
--
binder: Fab0072 (Fab, V domains shown) VH: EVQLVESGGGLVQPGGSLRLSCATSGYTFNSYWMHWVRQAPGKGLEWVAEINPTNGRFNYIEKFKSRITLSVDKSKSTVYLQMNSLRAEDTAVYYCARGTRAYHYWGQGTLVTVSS VL: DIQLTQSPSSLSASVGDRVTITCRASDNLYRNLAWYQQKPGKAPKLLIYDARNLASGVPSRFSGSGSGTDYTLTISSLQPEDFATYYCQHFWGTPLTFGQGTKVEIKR
measured_value: 0.19 nM

Now let's try a different one.
// Kd value for Fab0065 (Fab, V domains shown) VH: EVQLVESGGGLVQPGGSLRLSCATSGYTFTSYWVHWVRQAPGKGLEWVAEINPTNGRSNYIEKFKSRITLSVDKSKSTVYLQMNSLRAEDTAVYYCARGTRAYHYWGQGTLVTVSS VL: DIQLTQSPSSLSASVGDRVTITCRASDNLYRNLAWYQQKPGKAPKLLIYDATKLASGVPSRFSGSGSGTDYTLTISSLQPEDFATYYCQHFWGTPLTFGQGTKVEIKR : 0.26 nM
